target: FAAH (Homo sapiens); assay: Assay Method 1: FAAH assay, 3H-anandamide hydrolysis in homogenate of T84 cells or SK-N-MC cells transfected with human FAAH; conditions: average of results, > = solubility limit or highest concentration tested
Sequence (O00519 whole entry): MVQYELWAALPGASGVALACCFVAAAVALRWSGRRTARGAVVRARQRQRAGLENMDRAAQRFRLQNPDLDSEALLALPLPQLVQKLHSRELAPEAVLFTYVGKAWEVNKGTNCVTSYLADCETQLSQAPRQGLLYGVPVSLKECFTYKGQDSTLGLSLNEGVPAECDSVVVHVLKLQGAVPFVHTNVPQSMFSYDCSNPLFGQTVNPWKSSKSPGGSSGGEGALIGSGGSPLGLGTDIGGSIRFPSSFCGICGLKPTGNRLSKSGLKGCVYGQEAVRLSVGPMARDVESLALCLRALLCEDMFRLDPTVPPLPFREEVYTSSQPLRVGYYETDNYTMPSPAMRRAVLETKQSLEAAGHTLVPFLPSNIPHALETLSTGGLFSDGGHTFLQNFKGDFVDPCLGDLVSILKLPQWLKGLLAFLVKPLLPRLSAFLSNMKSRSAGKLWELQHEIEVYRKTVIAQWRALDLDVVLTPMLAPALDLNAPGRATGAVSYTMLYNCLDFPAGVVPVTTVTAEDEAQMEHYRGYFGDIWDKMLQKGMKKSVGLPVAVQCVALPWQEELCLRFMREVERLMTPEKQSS
Field 'label' (enum: Yes / No). Set to Yes when IC50 is strictly under 300 nM; else No.

Ask | # strict comparison: is reported IC50 < 300 nM? input = `O=C(Nc1noc2ccccc12)N1CCN(Cc2cccc(C#Cc3cccc(Cl)c3)c2)CC1`
Reply | Yes

Continuing:
Ask | # strict comparison: is reported IC50 < 300 nM? input = `N#Cc1cccc(Oc2cccc(CN3CCN(C(=O)Nc4noc5ccccc45)CC3)c2)c1`
Reply | Yes

Ask | # strict comparison: is reported IC50 < 300 nM? input = `O=C(Nc1cnccn1)N1CCN(Cc2ccc(Br)c(Br)c2)CC1`
Reply | Yes

Data provenance: patent US20090062294A1
